Values from PubChem BioAssay (NCI)

tested on: NCI-H522 lung; test: NCI tumour cell line growth inhibition, 48 h
Tag: t if measured TGI is not below 4 µM, f if it is.

O=C(CCc1cccc(O)c1)NCCc1cccc(OCc2ccccc2)c1; t
COc1ccc(-c2cncn2-c2cc(OC)c(OC)c(OC)c2)cc1F; f
Oc1ccc2ccccc2c1Cc1c(O)ccc2ccccc12; t
Cc1cccnc1CNC1CC(NCc2ncccc2C)CC(NCc2ncccc2C)C1 (configuration not stated); t
CC(C)CNc1nc(N=[N+]=[N-])nc(NCC(C)C)n1; t
O=C(NC/C(Cl)=C/Cl)Nc1cccc2c1CCCC2; t

Query: Can O=S(Cc1cc2c(cc1Br)OCO2)c1ccccc1 (configuration not stated) be said to have TGI at or above 4 µM?
Reply: t

Query: Can NC1=NS(=O)(=O)Nc2nc(-c3cccs3)[nH]c21 be said to have TGI at or above 4 µM?
Reply: t

Query: Can COCC12CC(CC1=O)C1C2ON2c3ccccc3C(=O)C12c1ccccc1 (configuration not stated) be said to have TGI at or above 4 µM?
Reply: t

Query: Can O=C(N/C(=C/c1ccc(Cl)cc1)c1nc2ccccc2c(=O)n1Nc1ccc([N+](=O)[O-])cc1[N+](=O)[O-])c1ccccc1 be said to have TGI at or above 4 µM?
Reply: t

Query: Can Nn1c(N=Nc2c(O)[nH]c3ccccc23)n[nH]c1=S be said to have TGI at or above 4 µM?
Reply: t

Query: Can COc1ccc(C(=O)c2ccc(-n3c4ccccc4c4ccc5c(c43)C(=O)C=CC5=O)cc2)cc1 be said to have TGI at or above 4 µM?
Reply: f

Query: Can CN1CCN(c2ccc3nc4c(nc3c2C(F)(F)F)C(=O)c2ncccc2C4=O)CC1 be said to have TGI at or above 4 µM?
Reply: f

---

Below, each entry is listed alongside its reported log10(TGI).
test system: MDA-MB-435; test: NCI tumour cell line growth inhibition, 48 h
The common logarithm of TGI in µM is what is listed.

Consider the reported log10(TGI) for these compounds:
O=c1cc(-c2ccccc2Cl)[nH]c2cc3c(cc12)OCO3; -1.50
CCN(CC)c1ccc2nc3c4ccccc4c(=NC(=O)c4ccccc4-c4c5ccc(N(CC)CC)cc5[o+]c5cc(N(CC)CC)ccc45)cc-3oc2c1; 0.64

Looking up CCCCCCCCCC(=O)CC(=O)c1c(O)cc(O)cc1O , I found its log10(TGI) recorded as 1.59

Looking up CCNCCNc1cc(-c2cccc(C(F)(F)F)c2)c(C#N)c2nc3ccccc3n12 , I found its log10(TGI) recorded as 0.46

Looking up O=C(CCc1cccc(O)c1)NCCc1cccc(OCc2ccccc2)c1 , I found its log10(TGI) recorded as 1.47

Looking up COc1ccc2[nH]c3c(C)c4cnccc4c(C)c3c2c1 , I found its log10(TGI) recorded as 0.45

---

tested on: SF-295 CNS; assay: NCI tumour cell line growth inhibition, 48 h
Below, each entry is listed alongside its reported TGI.

Consider the reported TGI for these compounds:
O=C(/C=C/c1ccc(Cl)c(Cl)c1)C1CCC(Cl)CC1 (stereo not drawn); 35.8 µM
CCN(CC)c1ccc2nc3c4ccccc4c(=NC(=O)c4ccccc4-c4c5ccc(N(CC)CC)cc5[o+]c5cc(N(CC)CC)ccc45)cc-3oc2c1; 14.2 µM
COc1cccc(-c2cc(=O)c3cccnc3[nH]2)c1; > 100 µM
CCOC(=O)C(Cc1cn(S(=O)(=O)c2ccc(C)cc2)cn1)P(=O)(OCC)OCC (stereo not drawn); > 100 µM

Alright, here's another compound for you.
Looking up O=c1c2ncn(CCCl)c2n(-c2ccccc2)c(=S)n1-c1ccccc1 , I found its TGI recorded as > 100 µM
